observable: melting point

IN: // melting point lookup, key: COc1ccc(S(=O)(=O)Nc2nc(-c3cccc([N+](=O)[O-])c3)c(CN3CCOCC3)s2)cc1OC
OUT: 143 °C

IN: // melting point lookup, key: COc1ccc(S(=O)(=O)Nc2nc(-c3cccc([N+](=O)[O-])c3)c(CN3CCN(C)CC3)s2)cc1OC
OUT: 215 to 217 °C

IN: // melting point lookup, key: CCN(CC)Cc1sc(NS(=O)(=O)c2ccc(OC)c(OC)c2)nc1-c1cccc([N+](=O)[O-])c1
OUT: 165 to 168 °C
